Reference for the values: the supplement of paper PMC9732359

- PROTOCOL SUMMARY: protein stability index of a GFP-peptide fusion (yeast GPS) (PSI 1-4); higher = more stable; sorted into four equal gates, so the index is relative within each strain
- CONDITION DESCRIPTION: ubr1∆
protein stability index reference
RECORDED ENDPOINT: protein stability index

biosequence="VLVYDDKLEKVTHDCYR [RPC34]" value_measured=2.96
biosequence="AKYHAKLNKKLQHLRSR [SRP68]" value_measured=3.07
biosequence="IREINYTMSNHGMSVDP [RPO31]" value_measured=3.06
biosequence="FDDIFQVSEVDPGRYNK [RPB8]" value_measured=2.95

----------
protein stability index reference
- PROTOCOL SUMMARY: protein stability index of a GFP-peptide fusion (yeast GPS) (PSI 1-4); higher = more stable; sorted into four equal gates, so the index is relative within each strain
- CONDITION DESCRIPTION: ubr1∆
RECORDED ENDPOINT: protein stability index

biosequence="TRIKLLLTKNVSCYRPR [RPS6A]" value_measured=2.94
biosequence="GDYVAYQLNGVAPFMIK [YMR129W/POM152]" value_measured=1.84
biosequence="EILYYQIKTLPEQYSDI [AAR2]" value_measured=2.91
biosequence="KLDTEVKNTNANPVVAT [SWP82]" value_measured=1.86
biosequence="KSITLKGRNNESNNKKY [YDL088C/ASM4]" value_measured=3.08
biosequence="QFCGIKERNSLKKLKAM [BRR2]" value_measured=2.99
biosequence="TTKILGDKILGNLYSKV [YML103C/NUP188]" value_measured=2.75
biosequence="YRATSLDPSLRAPIYHS [YML031W/NDC1]" value_measured=2.44
biosequence="RMVRSIMWQLLDGVSYL [SSN3]" value_measured=1.34
biosequence="LEKGEIELSDGSTFKVN [YJL039C/NUP192]" value_measured=2.95
biosequence="FSQTVADNNDLQESINH [ECM29]" value_measured=3.1
biosequence="LAKAVAATIGANFIFSP [RPT4]" value_measured=2.18
biosequence="EAGASAELDDCRGVSEN [RPO21]" value_measured=3.6
biosequence="VGGCKDQIEKLREVVEL [RPT1]" value_measured=3.33
biosequence="GVYKRDNRTKSTTIKNI [SMC4]" value_measured=1.23
biosequence="KIATRGVMLWKEFDETI [FAS1]" value_measured=2.94
biosequence="DLCSLKPYVDRFAFSVI [DIS3]" value_measured=2.27
biosequence="IAYSDSQSSNANICLTF [SIN4]" value_measured=2.89
biosequence="NNDVFTIGPYRARKDRM [SSN3]" value_measured=3.32
biosequence="QQWGNDFYKRDPRIAPL [FAS2]" value_measured=2
biosequence="NNAHSSDLGTVVFDSNE [YMR153W/NUP53]" value_measured=1.85
biosequence="DDNETENPNFWRQFGNR [GRR1]" value_measured=3.21
biosequence="DELDAIGTKRFDSEKSG [RPT5]" value_measured=1.99
biosequence="IIGTFSDSYKVSLQNFS [RRP40]" value_measured=1.96
biosequence="TETSNEDEDEDDETPSC [SNU114]" value_measured=2.74
biosequence="RVLEIQTSLVRMFEKNV [SKI6]" value_measured=3.12
biosequence="LKIIHTSVWAGQKRLSQ [PRP8]" value_measured=1.48
biosequence="YLRVSFKNTRETAQAIN [RPL17A]" value_measured=1.31
biosequence="SMKDRAQHAVILDQEKY [RPS25A]" value_measured=2.23
biosequence="SNLEKLPKYKEKKAASA [MED7]" value_measured=2.25
biosequence="TLTDILEDELYHTNPGH [RPN4]" value_measured=3.21
biosequence="IVLLDDEGKEIPATIFD [TAF14]" value_measured=3.06
biosequence="TLSKTTDSSALTYDRLE [PRE9]" value_measured=2.94
biosequence="DTEMKMKSLLTELSNKE [YIL149C/MLP2]" value_measured=3.35
biosequence="KQLIMESQEKYMEPFDL [NSL1]" value_measured=3.28
biosequence="THIPQTNLKNHPAYLFK [YLR018C/POM34]" value_measured=2.75
biosequence="RAIPFRRFNSSIGRTAQ [RPL17A]" value_measured=2.68
biosequence="PIYTGDGWVKLTYKSEL [YMR153W/NUP53]" value_measured=1.98
biosequence="LKNVEETQEIKENDTVM [ESC2]" value_measured=3.16
biosequence="TVFFLIRVAETRGGASA [YJL039C/NUP192]" value_measured=2.13
biosequence="LSALNSEISSLKGKINN [SMC1]" value_measured=3.06
biosequence="AKLNHLKKLEKFMELER [SWI3]" value_measured=2.66
biosequence="LDRIPMHSYFIFKDLVT [COB]" value_measured=1.67
biosequence="KQYLSASFSLKNGDKPH [RPL6A]" value_measured=2.96
biosequence="IQVAAFIYGMSAKDHPK [PRP8]" value_measured=3.17
